Source: the supplement of paper PMC8671470

test system: LAMA-84; experiment: cell viability (% survival relative to DMSO control, bortezomib = 0%); higher = less cytotoxic; details: 1 nM; 72 h
Hi there, I'd appreciate the recorded cell viability for every entry that follows.
Numbers only, in %.

Below, each entry is followed by its recorded cell viability result.
[[record]]
molecule = "Clc1ccc2c(c1Cl)CNCC2"
reported = 98.6

[[record]]
molecule = "O=C(O)c1nn(Cc2ccc(Cl)cc2Cl)c2ccccc12 [Lonidamine]"
reported = 99.1


Would you mind listing cell viability for each of the following molecules?
1. CN(C)c1nc(O)c2[nH]cnc2n1 [2-Dimethylamino-6-hydroxypurine]
2. Cc1coc2c1C(=O)C(=O)c1c-2ccc2c(C)cccc12 [Tanshinone I]
3. Cc1noc2c1-c1ccccc1C(c1ccc(Cl)cc1)=N[C@H]2CC(N)=O [CPI-0610]
4. O=C1Oc2ccccc2C(=O)C1CC1C(=O)Oc2ccccc2C1=O (configuration not stated) [Dicumarol]

1: 101; 2: 104; 3: 107; 4: 97.3

Would you mind listing cell viability for each of the following molecules?
1. O=C(O)CCc1ccc(NCc2cccc(Oc3ccccc3)c2)cc1 [GW9508]
2. CCCc1nn(C)c2c(O)nc(-c3cc(S(=O)(=O)N4CCN(C)CC4)ccc3OCC)nc12 [Sildenafil]
3. C1CCc2nnc(C34CC5CC(CC(C5)C3)C4)n2CC1 [MERCK-544]
4. CC(C)C[C@H](NC(=O)[C@@H](O)[C@H](N)Cc1ccccc1)C(=O)O [Ubenimex]
5. CC(Cc1ccc(O)c(O)c1)C(C)Cc1ccc(O)c(O)c1 (configuration not stated) [Masoprocol]
6. O=P(O)(O)C(O)(Cn1ccnc1)P(=O)(O)O [Zoledronic acid]
7. O=C(O)C(Cl)Cl [Dichloroacetate]
8. CN(C/C=C/C#CC(C)(C)C)Cc1cccc2ccccc12 [Terbinafine]

[96.8, 91.3, 102, 115, 95.8, 99.5, 101, 104]

Would you mind listing cell viability for each of the following molecules?
1. CC12CCC(O)CC1CCC1C2CCC2(C)C(C3=CC(=O)OC3)CCC12O (configuration not stated) [Digitoxigenin]
2. C1CCC(C(CC2CCCCN2)C2CCCCC2)CC1.O=C(O)/C=C\C(=O)O (configuration not stated) [Perhexiline]

109
97.7

Would you mind listing cell viability for each of the following molecules?
1. Cc1ccc(S(=O)(=O)NC2c3ccccc3Oc3ccccc32)cc1 [AH-7614]
2. O=c1c2ccccc2[se]n1-c1ccccc1 [Ebselen]

93.7
93.3
